These measurements were taken from patent US9957263B2.

Below is a list of entries, each paired with its recorded pKi value.
target: BRD4 (BDI_K57-E168) (Homo sapiens (Human)); experiment: TR-FRET bromodomain binding assay, BRD4 first bromodomain; settings: His-tagged BD1, Alexa647-labeled probe 100 nM
Units for pKi: none; it is -log10 of a concentration expressed in mol/L.

- compound: "Cn1cc(-c2cc(S(C)(=O)=O)ccc2Oc2cccc(NCc3ccc(F)cc3Cl)c2)c2cc[nH]c2c1=O [Example 72]"
  recordedEndpoint: "pKi"
  recordedNumber: 8.13
- compound: "CC(=O)Nc1ccc(CN2CCC(Nc3ccc(S(C)(=O)=O)cc3-c3cn(C)c(=O)c4[nH]ccc34)CC2)cc1 [Example 87]"
  recordedEndpoint: "pKi"
  recordedNumber: 7.68
- compound: "CCS(=O)(=O)c1ccc(OC2CCCCC2)c(-c2cn(C)c(=O)c3[nH]c(-c4cnn(C5CCNCC5)c4)cc23)c1 [Example 149]"
  recordedEndpoint: "pKi"
  recordedNumber: 8.55

Value of pKi reported for the compound COc1cccc(CNc2cccc(Oc3ccc(S(C)(=O)=O)cc3-c3cn(C)c(=O)c4[nH]ccc34)c2)c1 [Example 66] is 8.42

Value of pKi reported for the compound Cn1cc(-c2cc(S(C)(=O)=O)ccc2Oc2cccc(NS(=O)(=O)c3ccc([N+](=O)[O-])cc3)c2)c2cc[nH]c2c1=O [Example 43] is 8.30

Value of pKi reported for the compound Cn1cc(-c2cc(S(C)(=O)=O)ccc2Oc2cccc(NCC3CCCO3)c2)c2cc[nH]c2c1=O (stereo not drawn) [Example 65] is 8.16

Value of pKi reported for the compound Cc1cc(C)n(C2CN(Cc3cc4c(-c5cc(S(C)(=O)=O)ccc5Oc5ccc(F)cc5F)cn(C)c(=O)c4[nH]3)C2)n1 [Example 129] is 7.80

Value of pKi reported for the compound Cn1cc(-c2cc(S(C)(=O)=O)ccc2N[C@H]2CC[C@H](NCc3ccc4ccccc4c3)CC2)c2cc[nH]c2c1=O [Example 110] is 8.96

Value of pKi reported for the compound CN1CCN(Cc2cc3c(-c4cc(S(C)(=O)=O)ccc4Oc4ccc(F)cc4F)cn(C)c(=O)c3[nH]2)C(c2ccccc2)C1 (stereo not drawn) [Example 188] is 8.81

----------
molecular target: BRD4 (BDI_K57-E168) (Homo sapiens (Human), UniProt O60885); assay: TR-FRET bromodomain binding assay, BRD4 first bromodomain; conditions: His-tagged BD1, Alexa647-labeled probe 100 nM
Below is a list of entries, each paired with its recorded pKi value.
Units for pKi: none; it is -log10 of a concentration expressed in mol/L.

- cpdSmiles: "CCS(=O)(=O)c1ccc(Oc2ccc(Cl)cc2C#CCN2CCOCC2)c(-c2cn(C)c(=O)c3[nH]ccc23)c1"
  recordedNumber: 7.41
- cpdSmiles: "Cc1nnc(C)n1C1CCN(Cc2cc3c(-c4cc(S(C)(=O)=O)ccc4Oc4ccc(F)cc4F)cn(C)c(=O)c3[nH]2)CC1"
  recordedNumber: 7.32
- cpdSmiles: "CCNC(=O)c1cc2c(-c3cc(S(=O)(=O)CC)ccc3Oc3c(C)cccc3CN3CCC3=O)cn(C)c(=O)c2[nH]1"
  recordedNumber: 6.41
- cpdSmiles: "Cn1cc(-c2cc(S(C)(=O)=O)ccc2Oc2cccc(NCc3ccc(C#N)cc3)c2)c2cc[nH]c2c1=O"
  recordedNumber: 8.43
- cpdSmiles: "CCS(=O)(=O)Nc1cc(-c2cn(C)c(=O)c3[nH]ccc23)c(Oc2ccc(F)cc2F)cc1C(N)=O"
  recordedNumber: 8.82

Now for another entry.
Value of pKi reported for the molecule CCS(=O)(=O)Nc1cc(-c2cn(C)c(=O)c3[nH]ccc23)c(Oc2ccc(F)cc2F)cc1CNC1CCCC1 is 7.49

----------
target: BRD4 (BDI_K57-E168) (Homo sapiens (Human), UniProt O60885); assay: TR-FRET bromodomain binding assay, BRD4 first bromodomain; details: His-tagged BD1, Alexa647-labeled probe 100 nM
Decision: Ki beneath 5 nM gives YES; Ki meeting or exceeding 5 nM gives NO.

Worked set:
- cpdSmiles: "CCCCN(CCC#N)C(=O)c1ccc(-c2cn(C)c(=O)c3[nH]c(C(=O)NCC)cc23)c(Oc2c(C)cccc2C)c1"
  labelClass: "NO"
- cpdSmiles: "CN1CCN(CC(=O)N2CCC(Nc3ccc(S(C)(=O)=O)cc3-c3cn(C)c(=O)c4[nH]ccc34)CC2)CC1"
  labelClass: "NO"
- cpdSmiles: "COCCN[C@H]1CC[C@H](Nc2ccc(S(C)(=O)=O)cc2-c2cn(C)c(=O)c3[nH]ccc23)CC1"
  labelClass: "YES"
- cpdSmiles: "Cn1cc(-c2cc(S(C)(=O)=O)ccc2Oc2cccc(NCC3CC3)c2)c2cc[nH]c2c1=O"
  labelClass: "NO"
- cpdSmiles: "Cn1cc(-c2cc(S(C)(=O)=O)ccc2Oc2cccc(NCc3cc(F)cc(F)c3)c2)c2cc[nH]c2c1=O"
  labelClass: "NO"

Threshold test, Ki < 5 nM: CSCCCN1CCC(Nc2ccc(S(C)(=O)=O)cc2-c2cn(C)c(=O)c3[nH]ccc23)CC1 NO

Threshold test, Ki < 5 nM: CCNC(=O)c1cc2c(-c3cc(S(=O)(=O)CC)ccc3Oc3c(C)cccc3Cn3ccccc3=O)cn(C)c(=O)c2[nH]1 NO

Threshold test, Ki < 5 nM: Cn1cc(-c2cc(S(C)(=O)=O)ccc2Oc2cccc(NCc3cccc(C#N)c3)c2)c2cc[nH]c2c1=O NO

Threshold test, Ki < 5 nM: Cn1cc(-c2cc(S(C)(=O)=O)ccc2Oc2cccc(NCc3ccc(F)cc3)c2)c2cc[nH]c2c1=O YES

Threshold test, Ki < 5 nM: COc1ccc(CCC(=O)N2CCC(Nc3ccc(S(C)(=O)=O)cc3-c3cn(C)c(=O)c4[nH]ccc34)CC2)c(OC)c1OC NO

Threshold test, Ki < 5 nM: Cc1cccc(S(=O)(=O)Nc2cccc(Oc3ccc(S(C)(=O)=O)cc3-c3cn(C)c(=O)c4[nH]ccc34)c2)c1 YES

Threshold test, Ki < 5 nM: Cc1cc(-c2ccc(-c3cn(C)c(=O)c4[nH]ccc34)c(OCC3CC3)c2)[nH]n1 NO

----------
biological target: BRD4 (BDII_E352-M457) (Homo sapiens (Human)); test: TR-FRET bromodomain binding assay, BRD4 second bromodomain; conditions: His-tagged BD2, Alexa647-labeled probe 30 nM
pKi: −log10 of the molar value.
Label 1.0 when pKi is at or above 8; anything below gets 0.0.

- compound: "Cn1cc(-c2cc(S(C)(=O)=O)ccc2Oc2ccc(F)cc2F)c2cc(CN3CCN(C4CCOCC4)CC3)[nH]c2c1=O [Example 116]"
  labelClass: 0.0
- compound: "Cn1cc(-c2cc(S(C)(=O)=O)ccc2Oc2cccc(NCc3ccc(F)cc3)c2)c2cc[nH]c2c1=O [Example 62]"
  labelClass: 1.0
- compound: "CCNC(=O)c1cc2c(-c3ccc(C(=O)N(CC(=O)NC)Cc4ccccn4)cc3Oc3c(C)cccc3C)cn(C)c(=O)c2[nH]1 [Example 153]"
  labelClass: 1.0
- compound: "Cn1cc(-c2cc(S(C)(=O)=O)ccc2Oc2cccc(NCC3CC3)c2)c2cc[nH]c2c1=O [Example 80]"
  labelClass: 1.0
- compound: "Cc1cc(C)n(C2CN(Cc3cc4c(-c5cc(S(C)(=O)=O)ccc5Oc5ccc(F)cc5F)cn(C)c(=O)c4[nH]3)C2)n1 [Example 129]"
  labelClass: 0.0
- compound: "CC(=O)c1ccc(S(=O)(=O)Nc2cccc(Oc3ccc(S(C)(=O)=O)cc3-c3cn(C)c(=O)c4[nH]ccc34)c2)cc1 [Example 44]"
  labelClass: 1.0
- compound: "CCS(=O)(=O)c1ccc(OCC2CC2(F)F)c(-c2cn(C)c(=O)c3[nH]c(CN4CCN(c5cnccn5)CC4)cc23)c1 (stereo not drawn) [Example 18]"
  labelClass: 0.0
- compound: "CCS(=O)(=O)c1ccc(OCC2CC2(F)F)c(-c2cn(C)c(=O)c3[nH]c(CN4CCN(c5cccnc5)CC4)cc23)c1 (stereo not drawn) [Example 20]"
  labelClass: 0.0
- compound: "COc1ccc(CCC(=O)N2CCC(Nc3ccc(S(C)(=O)=O)cc3-c3cn(C)c(=O)c4[nH]ccc34)CC2)c(OC)c1OC [Example 92]"
  labelClass: 0.0
- compound: "Cn1cc(-c2cc(S(C)(=O)=O)ccc2NC2CCN(Cc3cccs3)CC2)c2cc[nH]c2c1=O [Example 89]"
  labelClass: 0.0

Could you now consider this next compound?
Please check the record CCNC(=O)c1cc2c(-c3ccc(C(=O)N(c4ccccc4)C4CCCCC4)cc3Oc3c(C)cccc3C)cn(C)c(=O)c2[nH]1 [Example 186] and state if its pKi is at or above 8. 0.0

----------
target: BRD4 (BDI_K57-E168) (Homo sapiens (Human), UniProt O60885); test: TR-FRET bromodomain binding assay, BRD4 first bromodomain; conditions: His-tagged BD1, Alexa647-labeled probe 100 nM
Below is a list of entries, each paired with its recorded pKi value.
Units for pKi: none; it is -log10 of a concentration expressed in mol/L.

Below, each entry is followed by its recorded pKi result.
- molecule: "COCC(=O)N1CCC(Nc2ccc(S(C)(=O)=O)cc2-c2cn(C)c(=O)c3[nH]ccc23)CC1"
  recordedNumber: 7.66
- molecule: "CN(C)C(=O)C1(N2CCCC2=O)CCN(Cc2cc3c(-c4cc(S(C)(=O)=O)ccc4Oc4ccc(F)cc4F)cn(C)c(=O)c3[nH]2)CC1"
  recordedNumber: 7.63
- molecule: "Cn1cc(-c2cc(S(C)(=O)=O)ccc2Oc2cccc(C(=O)NC3CC3)c2)c2cc[nH]c2c1=O"
  recordedNumber: 7.48
- molecule: "CN(C)c1cccc(CNc2cccc(Oc3ccc(S(C)(=O)=O)cc3-c3cn(C)c(=O)c4[nH]ccc34)c2)c1"
  recordedNumber: 8.07
- molecule: "Cn1cc(-c2cc(S(C)(=O)=O)ccc2N[C@H]2CC[C@H](NCc3ccc(Cl)cc3)CC2)c2cc[nH]c2c1=O"
  recordedNumber: 8.60

Value of pKi reported for the molecule Cc1cccc(C)c1Oc1ccc(S(C)(=O)=O)cc1-c1cn(C)c(=O)c2[nH]c(C(=O)NCCCN(C)C3CCCCC3)cc12 is 7.00

Value of pKi reported for the molecule CCS(=O)(=O)Nc1cc(-c2cn(C)c(=O)c3[nH]ccc23)c(Oc2ccc(F)cc2F)cc1CNCCO is 7.38

Value of pKi reported for the molecule COc1ccc(S(=O)(=O)Nc2cccc(Oc3ccc(S(C)(=O)=O)cc3-c3cn(C)c(=O)c4[nH]ccc34)c2)cc1 is 8.34

Value of pKi reported for the molecule CC(=O)c1ccc(S(=O)(=O)Nc2cccc(Oc3ccc(S(C)(=O)=O)cc3-c3cn(C)c(=O)c4[nH]ccc34)c2)cc1 is 8.31

Value of pKi reported for the molecule CCS(=O)(=O)c1ccc(Oc2c(C)cccc2Cl)c(-c2cn(C)c(=O)c3[nH]c(C(=O)NCCC#N)cc23)c1 is 7.40

Value of pKi reported for the molecule CCNC(=O)c1cc2c(-c3ccc(C(=O)N(CCN(C)C)c4ccccn4)cc3Oc3c(C)cccc3C)cn(C)c(=O)c2[nH]1 is 5.76

Value of pKi reported for the molecule Cn1cc(-c2cc(S(C)(=O)=O)ccc2Oc2cccc(C(=O)NC[C@H]3CCCO3)c2)c2cc[nH]c2c1=O is 7.82

Value of pKi reported for the molecule CC(C)c1ccc(S(=O)(=O)Nc2cccc(Oc3ccc(S(C)(=O)=O)cc3-c3cn(C)c(=O)c4[nH]ccc34)c2)cc1 is 8.00

Value of pKi reported for the molecule CCS(=O)(=O)Nc1cc(-c2cn(C)c(=O)c3[nH]ccc23)c(Oc2ccc(F)cc2F)cc1CN1CCCC1c1ccccc1 (centres unmarked) is 7.15
